Value source: ChEMBL document CHEMBL4480371

# PROTOCOL_TEXT: Antioxidant activity assessed as DPPH radical scavenging activity shaken for 1 min and incubated under dark condition for 30 mins by spectrophotometric analysis
# Assay type: functional
PARAMETER: log10 IC50 (log10 of the value in µM)
A value of 2 here means IC50 of 100 in µM, since values are log10.

O=c1cc(-c2cccc([N+](=O)[O-])c2)oc2c1ccc1ccccc12
0.92

Inquiry: Given the entry O=c1cc(-c2ccc(Br)cc2)oc2c1ccc1ccccc12 , report its measured log10 IC50.
Reply text: -0.46

Inquiry: Try this compound too: Cc1ccc(-c2cc(=O)c3ccc4ccccc4c3o2)cc1
Reply text: 0.81

Inquiry: Try this compound too: O=c1cc(-c2ccccc2I)oc2c1ccc1ccccc12
Reply text: 0.87

Inquiry: Try this compound too: O=c1cc(-c2cc(F)cc(F)c2)oc2c1ccc1ccccc12
Reply text: 0.50

Inquiry: Try this compound too: O=c1cc(-c2ccc(F)cc2)oc2c1ccc1ccccc12
Reply text: -0.08

Inquiry: Try this compound too: O=c1cc(-c2cccc(Cl)c2Cl)oc2c1ccc1ccccc12
Reply text: 1.04

###

Measured IC50 (Xanthine dehydrogenase/oxidase (Bos taurus))

O=c1cc(-c2cccc(F)c2)oc2c1ccc1ccccc12
> 20 µM
O=c1cc(-c2cccc([N+](=O)[O-])c2)oc2ccc3ccccc3c12
> 20 µM
O=c1cc(-c2cccc([N+](=O)[O-])c2)oc2c1ccc1ccccc12
> 20 µM

Now turn to the next compound.
Inquiry: Given the entry O=c1cc(-c2ccccc2)oc2ccc3ccccc3c12 , report its measured IC50.
Reply text: > 20 µM
